# EXPERIMENT_SUMMARY: NCI Yeast Anticancer Drug Screen. Data for the mec2-1 strain (AID 157)
# CONDITION_NOTES: S. cerevisiae mec2-1 strain, at 100.0 µM, active compounds read high
# Procedure: Growth inhibition of yeast strains with defined genetic alterations is measured as a screen for potential anti-cancer activity. Selected strains with alterations in DNA damage repair or cell cycle control were exposed to compounds and growth inhibition was measured relative to vehicle treated controls. The strain used in this assay is mec2-1
About 79,000 compounds went through this panel and 15% of them were active in at least one assay; those are over-represented in the sample as a whole.
READOUT_LABEL: growth inhibition (%)

Nc1ccc(Cl)cc1C(=O)c1ccccc1 | 97
O=C1c2ccc3ccccc3c2CCC1N1CCCCC1 (stereo unspecified) | 95
O=Cc1ccc(C(F)(F)F)cc1.[C-]#[O+].[C-]#[O+].[C-]#[O+].[Cr] | 14
CC1=C(CO)C2=C(C)C3(CC3)[C@@](C)(O)C(=O)C2=C1 | 66
CSc1ccccc1[As](C)C | 99
O=[N+]([O-])c1ccc(-n2nc3ccc4c(no[n+]4[O-])c3[n+]2[O-])c([N+](=O)[O-])c1 | 2
CSC(=Nc1ccccc1)N(c1ccccc1)c1nc(=[N+](C)C)ss1 | 99
O=C(O)c1ccccc1.[Ag] | 99
O=C1OC2C(O1)C1(Cl)C(Cl)=C(Cl)C2(Cl)C1(Cl)Cl (stereo unspecified) | -3
COC1CC(CC2CCC(C)C(C(C)C(=O)O)O2)OC2(OC(C)(C3CCC(C)(C4OC(C5OC(O)(CO)C(C)CC5C)CC4C)O3)CC2C)C1C (stereo unspecified) | 97
Cc1c([N+](=O)[O-])oc2ccc3ccccc3c12 | 91
